Tested on: basal breast cancer cells
Experiment: Proliferation of basal breast cancer cells
Assay type: cell-based
Conditions: 168 h; treated one week
Measured Parameter: IC50

Value lookup for IC50; key = CN(C)Cc1ccc(-n2c(=O)ccc3cnc4ccc(-c5cc(Cl)c(O)c(Cl)c5)cc4c32)cc1
~50 nM

###

The following compounds each carry a recorded pIC50 for MELK (Homo sapiens).
Scale note: pIC50 = -log10(concentration in M).

Answered examples (3):
- Compound: "O=c1ccc2cnc3ccc(-c4ccc(CO)cc4)cc3c2n1-c1ccc(N2CCNCC2)c(C(F)(F)F)c1"
  Target Desc: "MELK (Homo sapiens)"
  Readout Value: 6.92
- Compound: "CN(C)C[C@H]1CC[C@H](n2c(=O)[nH]c3cnc4ccc(-c5cc(Cl)c(O)c(Cl)c5)cc4c32)CC1"
  Target Desc: "MELK (Homo sapiens)"
  Readout Value: 8.73
- Compound: "CN(C)CC1CCC(CN2C(=O)NCc3cnc4ccc(-c5cc(Cl)c(O)c(Cl)c5)cc4c32)CC1 (stereo not shown)"
  Target Desc: "MELK (Homo sapiens)"
  Readout Value: 6.39

Alright, here's another compound for you.
Short answer please: pIC50, MELK (Homo sapiens), entry O=c1ccc2cnc3ccc(-c4cccc(O)c4)cc3c2n1-c1ccc(N2CCNCC2)c(C(F)(F)F)c1
6.84

// data source = patent US10544138B2
